target: Shiga toxin 2 (Escherichia coli O157:H7) (UniProt P09385+P09386); experiment: E. coli 0.157:H7 Shiga Toxin SOP - stx2 screening assay; format: functional; set-up: scale not given: direction of the effect not stated beside the values; conditions: 30 µM
Reported Percent Effect values follow for various compounds
Output spec: scalar in %, unitless text.

Some compounds with known Percent Effect results, for comparison:
> print(dat)
                                   compound  value.reported
1   NCc1cn(-c2ccccc2C(=O)NCc2cccc(Cl)c2)cn1            40.7
2     Cc1cccc(CS(=O)(=O)CC(=O)NCCCOC(C)C)c1           -44.7
3  COc1ccc(C(=O)N2C[C@@H](CN3CCOCC3)[C@@H](CO)C2)c(C)c1            2.18
4  COc1ccc(NC(=O)N2CCCC2c2ccco2)cc1OC (stereo not given)           -11.9
5  Cc1nc(N(C)C)nc2c1COCC21CCN(C(=O)NC(C)C)C1 (stereo not given)           -1.42

-- ask Form: Entry = CC(C)(C(=O)NCC1CC1)c1ccccc1F | System = Shiga toxin 2 (Escherichia coli O157:H7) (UniProt P09385+P09386) | Percent Effect = ____
-- reply -2.97

-- ask Form: Entry = CN(C)C(=O)CN1CCC2(CCN(Cc3nccs3)CC2)C1=O | System = Shiga toxin 2 (Escherichia coli O157:H7) (UniProt P09385+P09386) | Percent Effect = ____
-- reply -16.7

-- ask Form: Entry = O=C(NCC1CC1)N1CCN(Cc2ccc3c(c2)OCCO3)CC1 | System = Shiga toxin 2 (Escherichia coli O157:H7) (UniProt P09385+P09386) | Percent Effect = ____
-- reply 16.2

-- ask Form: Entry = CN(CCn1nc2ccccn2c1=O)CC(=O)NC1CC1 | System = Shiga toxin 2 (Escherichia coli O157:H7) (UniProt P09385+P09386) | Percent Effect = ____
-- reply -5.23

-- ask Form: Entry = COc1ccc(CNCC2CC2)cc1F | System = Shiga toxin 2 (Escherichia coli O157:H7) (UniProt P09385+P09386) | Percent Effect = ____
-- reply 28.8

###

Target: Aspartate--tRNA(Asp/Asn) ligase (Mycobacterium tuberculosis (strain ATCC 25618 / H37Rv)) (UniProt P9WFW3); note: in the data most compounds retested in dose-response had high values
Sequence (whole entry): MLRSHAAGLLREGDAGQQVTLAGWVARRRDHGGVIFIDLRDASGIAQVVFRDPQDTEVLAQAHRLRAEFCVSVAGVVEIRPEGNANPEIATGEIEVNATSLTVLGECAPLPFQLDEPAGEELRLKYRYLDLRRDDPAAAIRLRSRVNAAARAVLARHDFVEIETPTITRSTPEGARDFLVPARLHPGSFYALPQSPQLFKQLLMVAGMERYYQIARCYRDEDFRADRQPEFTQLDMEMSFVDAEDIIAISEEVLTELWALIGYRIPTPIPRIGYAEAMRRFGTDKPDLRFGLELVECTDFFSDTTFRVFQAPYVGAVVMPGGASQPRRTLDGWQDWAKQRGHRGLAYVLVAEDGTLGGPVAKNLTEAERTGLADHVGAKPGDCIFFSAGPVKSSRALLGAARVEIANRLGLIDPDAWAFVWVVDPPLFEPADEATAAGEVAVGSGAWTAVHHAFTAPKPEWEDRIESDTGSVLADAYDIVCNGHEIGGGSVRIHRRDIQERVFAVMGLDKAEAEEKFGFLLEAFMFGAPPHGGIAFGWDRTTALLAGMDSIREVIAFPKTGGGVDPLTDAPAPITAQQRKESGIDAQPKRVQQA
Assay: Assay for Asp RNA synthetase-1 from Mycobacterium tuberculosis
Type: functional
Parameters: scale not given: direction of the effect not stated beside the values
Conditions: 30 µM
MEASUREMENT NAME: Percent Effect

> print(dat)
                                   molecule  measurement.name  value.reported
1  Cc1cnn(C2CCCN(C(=O)c3cn4cccnc4n3)C2)c1 (configuration not stated)    Percent Effect         -0.409%
2     O=C(c1ccc(F)cc1Cl)N1CCC(Nc2cccnn2)CC1    Percent Effect           4.05%
3  O=C(NCC1CC1)[C@@H]1CCO[C@@H]2CCN(Cc3ccco3)C[C@H]21    Percent Effect           7.48%

-- ask Would you mind telling me what Percent Effect value was observed for c1cnnc(N2CCCC2CNCc2nc(C3CC3)no2)c1 (configuration not stated) ?
-- reply -4.43%

-- ask Would you mind telling me what Percent Effect value was observed for Cc1nn(C)c(C)c1CC(=O)N1CCC(N(C)c2cccnn2)CC1 ?
-- reply -4.15%

-- ask Would you mind telling me what Percent Effect value was observed for COc1ccc2c(c1)C1(CCN(Cc3ccncc3)CC1)N(C)CC2 ?
-- reply 2.26%

-- ask Would you mind telling me what Percent Effect value was observed for COc1cc2ncn(CC(=O)NCCCN(C)C)c(=O)c2cc1OC ?
-- reply -2.9%

-- ask Would you mind telling me what Percent Effect value was observed for CC(C)c1n[nH]c(C(=O)Nc2ccnn2C(C)C)c1Br ?
-- reply -9.11%

-- ask Would you mind telling me what Percent Effect value was observed for O=C(Nc1cnccn1)[C@H]1COC[C@H]2CN(C3CCCC3)C[C@H]21 ?
-- reply -3.53%

-- ask Would you mind telling me what Percent Effect value was observed for Cc1nc(C)c(C(=O)NCCNC(=O)Cc2ccccc2)s1 ?
-- reply -1.6%

-- ask Would you mind telling me what Percent Effect value was observed for O=C(Cn1c(=O)nc2n1C(=O)N(c1ccccc1)C2)Nc1ccccc1 ?
-- reply -4%

-- ask Would you mind telling me what Percent Effect value was observed for Cn1cc(CN2CC3(CCN(C(=O)c4ccoc4)C3)C2)cn1 ?
-- reply -2.07%

-- ask Would you mind telling me what Percent Effect value was observed for Cc1nc(CN2CCC3(CCN(c4ncc(F)cn4)C3)C2=O)cs1 (configuration not stated) ?
-- reply 7.33%

-- ask Would you mind telling me what Percent Effect value was observed for CC(C)C(C(=O)N1CCCN(Cc2cnn(C)c2)CC1)n1cncn1 (configuration not stated) ?
-- reply -1.93%

-- ask Would you mind telling me what Percent Effect value was observed for COCCNS(=O)(=O)c1cccc2c1CN(C(=O)c1ccccc1)CC2 ?
-- reply -2.79%

-- ask Would you mind telling me what Percent Effect value was observed for Cc1ccc(C2C3=C(COC3=O)Nc3[nH]nc(C)c32)cc1C (configuration not stated) ?
-- reply -4.73%

-- ask Would you mind telling me what Percent Effect value was observed for O=C(c1cc(C2CC2)[nH]n1)N1CCN(Cc2ccsc2)CC1 ?
-- reply -6.85%

-- ask Would you mind telling me what Percent Effect value was observed for O=C(Nc1nncs1)NC1CCOc2ccccc21 (configuration not stated) ?
-- reply 5.22%

###

molecular target: Aspartate--tRNA(Asp/Asn) ligase (Mycobacterium tuberculosis (strain ATCC 25618 / H37Rv)) (UniProt P9WFW3); assay: Assay for Asp RNA synthetase-1 from Mycobacterium tuberculosis; format: functional; parameters: scale not given: direction of the effect not stated beside the values; settings: 30 µM; note: in the data most compounds retested in dose-response had high values
MEASUREMENT NAME: Percent Effect (%)
Output spec: scalar in %, unitless text.

-- ask Would you mind telling me what Percent Effect value was observed for Cc1cc(C)n(C2CN(Cc3noc(-c4ccccc4)n3)C2)n1 ?
-- reply 4.04

-- ask Would you mind telling me what Percent Effect value was observed for CC(NCc1cccnc1)c1ccc(OCC(=O)NC2CC2)cc1 (centres undefined) ?
-- reply 4.26

-- ask Would you mind telling me what Percent Effect value was observed for COc1ccc(CN2CCC[C@@H]3CN(C(=O)c4ccco4)C[C@@H]32)cc1 ?
-- reply 5.87

-- ask Would you mind telling me what Percent Effect value was observed for O=C(CCc1ccc(Br)cc1F)NS(=O)(=O)c1ccc2c(c1)OCCO2 ?
-- reply 7.79

-- ask Would you mind telling me what Percent Effect value was observed for CCNC(=O)[C@@H]1C[C@H](NC(=O)c2cncnc2C)CN1CCCSC ?
-- reply -2.78

-- ask Would you mind telling me what Percent Effect value was observed for Cc1cnn(CC2CN(CC(=O)Nc3sccc3C#N)CCO2)c1 (centres undefined) ?
-- reply -2.83

-- ask Would you mind telling me what Percent Effect value was observed for CCc1nnc(C(C)N2CCCN(C(=O)Oc3ccccc3)CC2)o1 (centres undefined) ?
-- reply -3.35

-- ask Would you mind telling me what Percent Effect value was observed for COc1cccc(OCCNC(=O)CN2CCN(C)CC2C)c1 (centres undefined) ?
-- reply -3.03

-- ask Would you mind telling me what Percent Effect value was observed for COCCNc1ccc(CNC(=O)Nc2cn[nH]c2)cc1 ?
-- reply -0.4

-- ask Would you mind telling me what Percent Effect value was observed for Cn1ncc2c1CCCC2NCc1cc(Br)cs1 (centres undefined) ?
-- reply -1.12

-- ask Would you mind telling me what Percent Effect value was observed for O=c1oc(-c2cccs2)nn1CC(O)c1ccc(F)cc1 (centres undefined) ?
-- reply -0.425

-- ask Would you mind telling me what Percent Effect value was observed for Cc1cnn(C2CN(Cc3ccc4c(c3)OCCO4)C2)c1 ?
-- reply 2.19

Every entry's value here was drawn from ChEMBL document CHEMBL3988442.
